Give measured GFP response vs DMSO for each item. Keep answers brief.
Assay details: TOR pathway LAP4-GFP level changes – S. cerevisiae, multiplex flow cytometry, primary screen (AID 1873)
Experimental setup: S. cerevisiae LAP4-GFP expression, 3 h, at 10 µM, stronger effect = higher value
Results filed as inconclusive are left out.
Number in %, nothing else.

Ask: Give its GFP response vs DMSO value. Item: COc1ccc(C2C(C(=O)c3ccco3)=C(O)C(=O)N2CC2CCCO2)cc1 (stereo not given)
Result: 99.3

Ask: Give its GFP response vs DMSO value. Item: "Cc1nc2ccccc2n1CC(=O)NC1CCCC1"
Result: 92.6

Ask: Give its GFP response vs DMSO value. Item: "Cc1ccccc1C(=O)Oc1ccc(Sc2ccc(O)cc2)cc1"
Result: 113

Ask: Give its GFP response vs DMSO value. Item: CC1(CC(=O)Nc2ccccc2)NC(=S)N(c2ccccc2)N1 (stereo not given)
Result: 134

Ask: Give its GFP response vs DMSO value. Item: "CCOc1ccc2nc(S(N)(=O)=O)sc2c1"
Result: 100

Ask: Give its GFP response vs DMSO value. Item: CCC(C(=O)OCCN(CC)CC)c1ccccc1 (stereo not given)
Result: 85.9

Ask: Give its GFP response vs DMSO value. Item: NC(=O)C1CCCNC1 (stereo not given)
Result: 98

Ask: Give its GFP response vs DMSO value. Item: "O=C(Nc1ccc(Cl)cn1)Nc1ccccc1Cl"
Result: 111

Ask: Give its GFP response vs DMSO value. Item: "CC(C)(C)c1ccc(/C=C/C(=O)N2CCCCC2)cc1"
Result: 116

Ask: Give its GFP response vs DMSO value. Item: "O=C(Nc1ccc(N2CCOCC2)cc1)c1ccc(-c2ccccc2[N+](=O)[O-])o1"
Result: 96.5

Ask: Give its GFP response vs DMSO value. Item: "CCOc1ccc2[nH]c3c(=O)n(CCc4ccc(OC)cc4)cnc3c2c1"
Result: 120

Ask: Give its GFP response vs DMSO value. Item: CC1(C)C(C=C(Cl)Cl)C1C(=O)N1CCN(Cc2ccccc2)CC1 (stereo not given)
Result: 89.4

Ask: Give its GFP response vs DMSO value. Item: "O=C1CCCC(=O)C1=Cc1c[nH]c2ccccc12"
Result: 112

Ask: Give its GFP response vs DMSO value. Item: "COc1ccc2c(=O)c(-c3cnn(-c4ccccc4)c3)c(C)oc2c1"
Result: 115

Ask: Give its GFP response vs DMSO value. Item: "NC(N)=NC(N)=Nc1ccc2ccccc2c1"
Result: 85.4

Ask: Give its GFP response vs DMSO value. Item: COc1cc(C2C(C(C)=O)=C(O)C(=O)N2c2ccc(C)cc2)ccc1O (stereo not given)
Result: 97.3

Ask: Give its GFP response vs DMSO value. Item: COc1cccc(CC(=O)NCC2COc3ccccc3O2)c1OC (stereo not given)
Result: 102

Ask: Give its GFP response vs DMSO value. Item: "CCOC(=O)N1CCc2[nH]c3ccc(C)cc3c2C1"
Result: 140

Ask: Give its GFP response vs DMSO value. Item: "c1cnc(N2CCN(Cc3ccc4c(c3)OCO4)CC2)nc1"
Result: 97

Ask: Give its GFP response vs DMSO value. Item: CCOC(=O)C1=C(C)NC(C)=C(C(=O)OC)C1c1cccc([N+](=O)[O-])c1 (stereo not given)
Result: 85.3

Ask: Give its GFP response vs DMSO value. Item: "CCOC(=O)C(Cc1cc(C(C)=O)ccc1OC(C)C)C(=O)OCC"
Result: 85.3

Ask: Give its GFP response vs DMSO value. Item: "CN(C)CCCN1c2ccccc2Sc2ccc(C(F)(F)F)cc21"
Result: 115

Ask: Give its GFP response vs DMSO value. Item: "NC(N)=N/N=C/c1cccc(Cl)c1Cl"
Result: 103

Ask: Give its GFP response vs DMSO value. Item: "O=C1c2cccc3cccc(c23)C(=O)N1c1ccccn1"
Result: 97.3

Ask: Give its GFP response vs DMSO value. Item: CCN1C(=O)C(CC(=O)Nc2ccc(F)cc2)N(Cc2ccco2)C1=S (stereo not given)
Result: 106

Ask: Give its GFP response vs DMSO value. Item: CCOC(=O)C1(Cc2cccc(Cl)c2)CCCN(C2CCN(C(C)=O)CC2)C1 (stereo not given)
Result: 101

Ask: Give its GFP response vs DMSO value. Item: "O=C(CCSc1ccccc1)N1CCCC1"
Result: 104

Ask: Give its GFP response vs DMSO value. Item: COc1ccc(-c2cc(=O)oc3cc(OC(C)C(=O)O)ccc23)cc1 (stereo not given)
Result: 104

Ask: Give its GFP response vs DMSO value. Item: "COc1cc(C)nc(-n2nc(C)cc2OC)n1"
Result: 92.7

Ask: Give its GFP response vs DMSO value. Item: "c1cc(-c2ccncc2)ccn1"
Result: 108

Ask: Give its GFP response vs DMSO value. Item: "O=C(CCCn1c(=O)oc2ccccc21)N1CCN(c2ccc(F)cc2)CC1"
Result: 77.7

Ask: Give its GFP response vs DMSO value. Item: "COc1ccc(CC(=O)Nc2cccc(C(=O)Nc3ccccc3C(=O)O)c2)cc1OC"
Result: 103

Ask: Give its GFP response vs DMSO value. Item: "O=C(O)CCCCCN=C1CCc2ccccc2N1"
Result: 80.9

Ask: Give its GFP response vs DMSO value. Item: Cc1ccc2c(c1)C1(C(=O)N2)N2CCCC2C(C(=O)c2ccc3ccccc3c2)C12C(=O)Nc1ccccc12 (stereo not given)
Result: 89.4

Ask: Give its GFP response vs DMSO value. Item: "Cc1cccc(-n2c(Cc3ccccc3)n[nH]c2=S)c1"
Result: 124
